Experimental System: MAO-B (Homo sapiens, UniProt P27338)
Construct: purchased Sigma Aldrich
Sequence (P27338 1-520): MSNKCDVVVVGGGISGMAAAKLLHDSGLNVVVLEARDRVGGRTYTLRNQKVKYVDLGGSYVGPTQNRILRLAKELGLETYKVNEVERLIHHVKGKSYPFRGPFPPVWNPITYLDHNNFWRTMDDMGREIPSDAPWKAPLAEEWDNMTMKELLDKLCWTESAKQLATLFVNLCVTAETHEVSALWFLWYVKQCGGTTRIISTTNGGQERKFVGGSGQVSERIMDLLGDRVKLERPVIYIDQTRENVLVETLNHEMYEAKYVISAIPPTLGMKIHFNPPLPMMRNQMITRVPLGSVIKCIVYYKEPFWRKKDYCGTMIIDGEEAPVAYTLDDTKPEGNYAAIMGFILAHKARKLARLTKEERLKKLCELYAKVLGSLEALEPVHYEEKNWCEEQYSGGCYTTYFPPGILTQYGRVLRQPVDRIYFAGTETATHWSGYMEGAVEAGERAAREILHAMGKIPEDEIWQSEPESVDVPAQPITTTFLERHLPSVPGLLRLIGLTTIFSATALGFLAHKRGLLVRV
Assay Explanation: MAO-B enzyme inhibition assay (benzylamine substrate)
Format: biochemical
Run Parameters: MAO-B selectivity over MAO-A, based on IC50 values
Quantity Kind: SI (MAO)

1. CSc1ccc(/C=C/C(=O)c2ccc(N3CCN(C)CC3)cc2)cc1 : 5.93
2. CN1CCN(c2ccc(C(=O)/C=C/c3cc(C(F)(F)F)cc(C(F)(F)F)c3)cc2)CC1 : 2.55
3. CN1CCN(c2ccc(C(=O)/C=C/c3cc(C(F)(F)F)ccc3Cl)cc2)CC1 : 12.50

# ---- query compound ----
query: Please give the measured SI (MAO) for this compound: CN1CCN(c2ccc(C(=O)/C=C/c3ccc(Cl)c(C(F)(F)F)c3)cc2)CC1
result: 28.37

---

Experimental System: MAO-A (Homo sapiens)
Construct: purchased Sigma Aldrich
Sequence (P21397 1-527): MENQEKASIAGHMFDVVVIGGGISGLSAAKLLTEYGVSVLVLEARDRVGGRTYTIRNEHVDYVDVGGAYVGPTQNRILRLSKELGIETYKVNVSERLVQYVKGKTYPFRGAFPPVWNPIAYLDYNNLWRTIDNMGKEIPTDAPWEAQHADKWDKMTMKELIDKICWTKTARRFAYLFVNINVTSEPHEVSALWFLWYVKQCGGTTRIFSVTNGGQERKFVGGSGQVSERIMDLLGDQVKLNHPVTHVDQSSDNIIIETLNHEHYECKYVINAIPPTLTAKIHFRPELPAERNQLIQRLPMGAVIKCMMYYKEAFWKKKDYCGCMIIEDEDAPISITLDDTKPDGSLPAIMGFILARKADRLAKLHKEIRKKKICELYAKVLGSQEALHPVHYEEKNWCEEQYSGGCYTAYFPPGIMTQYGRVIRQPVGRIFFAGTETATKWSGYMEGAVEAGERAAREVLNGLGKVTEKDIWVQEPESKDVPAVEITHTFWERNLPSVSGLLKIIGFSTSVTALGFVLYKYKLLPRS
Assay Explanation: MAO-A enzyme inhibition assay (kynuramine substrate)
Type: biochemical
Run Parameters: 10 μM compound; mean ± SD; read-out: Residual Activities at 10 μM (%) MAO-A
Would you kindly list remaining activity at 10 µM for each of these compounds?
One number for each entry, in %.

Report remaining activity at 10 µM for each item below.
1. CN1CCN(c2ccc(C(=O)/C=C/c3ccc(C#N)cc3)cc2)CC1 [Compound 2d]
2. CN1CCN(c2ccc(C(=O)/C=C/c3ccc(F)c(C(F)(F)F)c3)cc2)CC1 [Compound 2k]
3. CC(C)c1ccc(/C=C/C(=O)c2ccc(N3CCN(C)CC3)cc2)cc1 [Compound 2e]
4. CN1CCN(c2ccc(C(=O)/C=C/c3ccc(Cl)c(C(F)(F)F)c3)cc2)CC1 [Compound 2l]
5. CN1CCN(c2ccc(C(=O)/C=C/c3cc(F)cc(C(F)(F)F)c3)cc2)CC1 [Compound 2i]

result:
1. 72.3
2. 96.4
3. 60.6
4. 85.9
5. 114

---

Experimental System: BChE (Equus caballus, UniProt P81908)
Sequence (P81908 whole entry): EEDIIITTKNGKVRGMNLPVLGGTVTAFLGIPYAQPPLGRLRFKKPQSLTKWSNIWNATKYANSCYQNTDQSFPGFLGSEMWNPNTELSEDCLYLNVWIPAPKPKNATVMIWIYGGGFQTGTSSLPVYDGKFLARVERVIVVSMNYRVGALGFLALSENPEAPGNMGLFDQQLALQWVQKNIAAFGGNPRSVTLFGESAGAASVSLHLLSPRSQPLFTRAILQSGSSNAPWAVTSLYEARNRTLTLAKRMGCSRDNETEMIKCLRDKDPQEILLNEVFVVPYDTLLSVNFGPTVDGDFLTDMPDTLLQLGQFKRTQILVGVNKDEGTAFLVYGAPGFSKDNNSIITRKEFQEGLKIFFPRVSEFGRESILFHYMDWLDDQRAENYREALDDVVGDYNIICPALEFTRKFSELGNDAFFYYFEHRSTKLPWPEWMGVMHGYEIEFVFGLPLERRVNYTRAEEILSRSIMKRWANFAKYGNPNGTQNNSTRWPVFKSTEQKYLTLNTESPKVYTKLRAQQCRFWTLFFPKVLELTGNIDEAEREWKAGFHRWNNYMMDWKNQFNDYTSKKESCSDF
Assay Explanation: biochemical
Run Parameters: read-out: Residual Activities at 10 μM (%) BChE
Quantity Kind: remaining activity at 10 µM (%)
Numbers only, in %.

Reference set, count: 6
1) CN1CCN(c2ccc(C(=O)/C=C/c3cc(F)cc(C(F)(F)F)c3)cc2)CC1 [Compound 2i] : 63.7
2) CSc1ccc(/C=C/C(=O)c2ccc(N3CCN(C)CC3)cc2)cc1 [Compound 2g] : 74.7
3) CN1CCN(c2ccc(C(=O)/C=C/c3cc(C(F)(F)F)ccc3Cl)cc2)CC1 [Compound 2o] : 6.46
4) CN1CCN(c2ccc(C(=O)/C=C/c3ccc(F)cc3F)cc2)CC1 [Compound 2q] : 55.3
5) CN1CCN(c2ccc(C(=O)/C=C/c3ccc(Cl)c(C(F)(F)F)c3)cc2)CC1 [Compound 2l] : 73
6) COc1ccc(/C=C/C(=O)c2ccc(N3CCN(C)CC3)cc2)c(C(F)(F)F)c1 [Compound 2p] : 28.9

# ---- query molecule ----
query: Please give the measured remaining activity at 10 µM for this molecule: CN1CCN(c2ccc(C(=O)/C=C/c3ccc(F)c(C(F)(F)F)c3)cc2)CC1 [Compound 2k]
result: 61.8

---

Experimental System: BChE (Equus caballus, UniProt P81908)
Assay Explanation: biochemical
Run Parameters: read-out: Residual Activities at 10 μM (%) BChE
Checkbox rule: remaining activity at 10 µM lower than 70% = Condition met; remaining activity at 10 µM not lower than 70% = Condition not met.

Consider the following illustrative entries.
1) COc1cc(/C=C/C(=O)c2ccc(N3CCN(C)CC3)cc2)ccc1F : Condition met
2) CN1CCN(c2ccc(C(=O)/C=C/c3ccc(OC(F)F)cc3)cc2)CC1 : Condition not met
3) CN1CCN(c2ccc(C(=O)/C=C/c3ccc(C(F)(F)F)cc3)cc2)CC1 : Condition met
4) CN1CCN(c2ccc(C(=O)/C=C/c3cc(C(F)(F)F)cc(C(F)(F)F)c3)cc2)CC1 : Condition not met

query: Dear reviewer, please state whether CN1CCN(c2ccc(C(=O)/C=C/c3ccc(N(C)C)cc3)cc2)CC1 has remaining activity at 10 µM strictly beneath 70%.
result: Condition not met

query: Quick one: CN1CCN(c2ccc(C(=O)/C=C/c3cccc(C(F)(F)F)c3)cc2)CC1
result: Condition met

query: Quick one: CC(C)c1ccc(/C=C/C(=O)c2ccc(N3CCN(C)CC3)cc2)cc1
result: Condition met

query: Quick one: CN1CCN(c2ccc(C(=O)/C=C/c3ccc(F)cc3)cc2)CC1
result: Condition met

---

Experimental System: AChE (Electrophorus electricus)
Sequence (O42275 24-633): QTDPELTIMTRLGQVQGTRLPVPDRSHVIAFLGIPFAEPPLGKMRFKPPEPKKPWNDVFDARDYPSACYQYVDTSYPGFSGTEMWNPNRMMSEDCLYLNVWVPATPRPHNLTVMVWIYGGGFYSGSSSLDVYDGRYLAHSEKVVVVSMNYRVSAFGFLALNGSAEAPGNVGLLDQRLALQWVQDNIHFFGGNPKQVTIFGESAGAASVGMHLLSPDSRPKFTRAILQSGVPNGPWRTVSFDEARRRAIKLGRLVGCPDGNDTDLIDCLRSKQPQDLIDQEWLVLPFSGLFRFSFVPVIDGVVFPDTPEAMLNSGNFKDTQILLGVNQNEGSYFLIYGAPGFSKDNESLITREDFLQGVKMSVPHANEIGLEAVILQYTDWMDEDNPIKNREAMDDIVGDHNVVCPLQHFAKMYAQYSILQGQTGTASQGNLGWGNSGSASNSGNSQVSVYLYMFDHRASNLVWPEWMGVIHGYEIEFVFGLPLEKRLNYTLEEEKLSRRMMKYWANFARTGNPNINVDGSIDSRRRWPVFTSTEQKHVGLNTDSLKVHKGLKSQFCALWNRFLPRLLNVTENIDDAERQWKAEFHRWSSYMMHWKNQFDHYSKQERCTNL
Assay Explanation: AChE inhibition assay (Ellman method, ATCI)
Type: biochemical
Run Parameters: AChE selectivity over BChE, based on IC50 values
Would you kindly list SI (ChE) for each of these molecules?

Reference set, count: 4
1) CN1CCN(c2ccc(C(=O)/C=C/c3cc(C(F)(F)F)ccc3Cl)cc2)CC1 [Compound 2o] : 0.31
2) COc1ccc(/C=C/C(=O)c2ccc(N3CCN(C)CC3)cc2)c(C(F)(F)F)c1 [Compound 2p] : 1.06
3) CN1CCN(c2ccc(C(=O)/C=C/c3ccc(OC(F)F)cc3)cc2)CC1 [Compound 2h] : >6.87
4) CC(C)c1ccc(/C=C/C(=O)c2ccc(N3CCN(C)CC3)cc2)cc1 [Compound 2e] : 3.83

# ---- query molecule ----
query: Please give the measured SI (ChE) for this molecule: COc1cc(/C=C/C(=O)c2ccc(N3CCN(C)CC3)cc2)ccc1F [Compound 2m]
result: 4.18

---

Experimental System: AChE (Electrophorus electricus)
Assay Explanation: AChE inhibition assay (Ellman method, ATCI)
Assay type: biochemical
Run Parameters: mean ± SD
Quantity Kind: IC50 (µM)
Numbers only, in µM.

query: For the record CN1CCN(c2ccc(C(=O)/C=C/c3cc(Br)ccc3F)cc2)CC1 , what value of IC50 is listed for AChE (Electrophorus electricus)?
result: 4.32

---

Experimental System: AChE (Electrophorus electricus)
Assay Explanation: AChE inhibition assay (Ellman method, ATCI)
Format: biochemical
Run Parameters: AChE selectivity over BChE, based on IC50 values
Quantity Kind: SI (ChE)

Reference set, count: 4
1) CN1CCN(c2ccc(C(=O)/C=C/c3cccc(C(F)(F)F)c3)cc2)CC1 [Compound 2a] : 2.44
2) CN1CCN(c2ccc(C(=O)/C=C/c3ccc(N(C)C)cc3)cc2)CC1 [Compound 2f] : >13.20
3) CN1CCN(c2ccc(C(=O)/C=C/c3ccc(F)cc3F)cc2)CC1 [Compound 2q] : 1.71
4) CN1CCN(c2ccc(C(=O)/C=C/c3ccc(C#N)cc3)cc2)CC1 [Compound 2d] : 10.38

query: For the record CN1CCN(c2ccc(C(=O)/C=C/c3cc(F)cc(C(F)(F)F)c3)cc2)CC1 [Compound 2i] , what value of SI (ChE) is listed for AChE (Electrophorus electricus)?
result: 1.82

FYI, the data here is from paper PMC9860728.
